AC50 values, listed per item
- systemName: human PAH with the R408W mutation (Homo sapiens, UniProt P00439, R408W)
- Construct: expressed in transfected cells
- testProtocol: Cell Based Phenylalanine Flux Assay
- experimentalContext: A375 cells expressing R408W PAH; 24 hrs with compound, then 20 µM sepiapterin and 800 µM 13C9,15N-Phenylalanine for 4 hours; 13C-Tyrosine by LC-MS; average where tested multiple times; read-out: AC50

As a guide, the following entries are already answered.
compound: CN(C)Cc1ccc2c(C(=O)N3CCc4[nH]cnc4C3c3cc4cccc(F)n4n3)cnn2c1 (stereo not shown)
systemName: human PAH with the R408W mutation (Homo sapiens, UniProt P00439, R408W)
AC50: 1 to 5 µM
--
compound: O=C(c1cnco1)N1CCc2[nH]cnc2C1c1cc2cc(C(F)(F)F)ccn2n1 (stereo not shown)
systemName: human PAH with the R408W mutation (Homo sapiens, UniProt P00439, R408W)
AC50: 1 to 5 µM
--
compound: Cn1ccc(-c2nnc(C(=O)N3CCc4[nH]cnc4C3c3cc4c(OC(F)F)cccn4n3)o2)n1 (stereo not shown)
systemName: human PAH with the R408W mutation (Homo sapiens, UniProt P00439, R408W)
AC50: 1 to 5 µM
--
compound: Cn1ccc(-c2ncc(C(=O)N3CCc4[nH]cnc4C3c3cc4c(C(F)F)cccn4n3)o2)n1 (stereo not shown)
systemName: human PAH with the R408W mutation (Homo sapiens, UniProt P00439, R408W)
AC50: 1 to 5 µM
--
compound: CC(C)(O)c1nnc(C(=O)N2CCc3[nH]cnc3C2c2cc3c(C(F)(F)F)cccn3n2)o1 (stereo not shown)
systemName: human PAH with the R408W mutation (Homo sapiens, UniProt P00439, R408W)
AC50: 1 to 5 µM
--
compound: Cc1cccc2cc(C3c4nc[nH]c4CCN3C(=O)c3cnco3)nn12 (stereo not shown)
systemName: human PAH with the R408W mutation (Homo sapiens, UniProt P00439, R408W)
AC50: 1 to 5 µM

Asked: Need AC50, item COc1cccn2nc([C@@H]3c4nc[nH]c4CCN3c3nnc(C)o3)cc12 (single isomer, unassigned)
Given back: 1 to 5 µM

Asked: Dear colleague, I am looking for the recorded AC50 of the following compound: Fc1cccn2nc(C3c4nc[nH]c4CCN3c3nnc(C4CC(F)(F)C4)o3)cc12 (stereo not shown)
Given back: 1 to 5 µM

Asked: Any idea what AC50 was measured for CC(C)(C)c1nnc(N2CCc3[nH]cnc3C2c2cc3c(C(F)(F)F)cccn3n2)o1 (stereo not shown) ?
Given back: 1 to 5 µM

Asked: Please report the recorded AC50 for O=C(c1ocnc1C(F)F)N1CCc2[nH]cnc2C1c1cc2cc(C(F)(F)F)ccn2n1 (stereo not shown) .
Given back: 1 to 5 µM

Asked: Could you share which AC50 value was measured for CN(C)Cc1nnc(C(=O)N2CCc3[nH]cnc3C2c2cc3ccccn3n2)o1 (stereo not shown) ?
Given back: > 5 µM

Asked: Looking for the measured AC50 of Cc1nnc(C(=O)N2CCc3[nH]cnc3C2c2cc3cc(F)ccn3n2)o1 (stereo not shown) , can you help?
Given back: 1 to 5 µM

Asked: If you can, please state the reported AC50 value of Cn1ccc(-c2nnc(C(=O)N3CCc4[nH]cnc4C3c3cc4cc(F)ccn4n3)o2)n1 (stereo not shown) .
Given back: > 5 µM

Asked: Need AC50, item O=C(C1CCC1)N1CCc2[nH]cnc2C1c1cc2ccccn2n1 (stereo not shown)
Given back: > 5 µM

Asked: // AC50 lookup, key: Cc1cccc2cc(C3c4nc[nH]c4CCN3C(=O)c3nc(C(F)F)nn3C)nn12 (stereo not shown)
Given back: 1 to 5 µM

Asked: I am curious: what AC50 value has been reported for Cn1ccc(-c2nc(C(F)F)c(C(=O)N3CCc4[nH]cnc4C3c3cc4c(F)cccn4n3)o2)n1 (stereo not shown) ?
Given back: > 5 µM

Asked: Which AC50 value is on record for O=C(c1cnn2cc(N3CCOCC3)ccc12)N1CCc2[nH]cnc2C1c1cc2ccccn2n1 (stereo not shown) ?
Given back: > 5 µM

Asked: Fill in: AC50 of Cn1cc(-c2nnc(C(=O)N3CCc4[nH]cnc4C3c3cc4cc(F)ccn4n3)o2)cn1 (stereo not shown) is ___
Given back: 1 to 5 µM

Asked: Please give the measured AC50 for this compound: Cc1c(C2c3nc[nH]c3CCN2C(=O)c2nnc(C(C)(C)F)o2)nn2ccccc12 (stereo not shown)
Given back: 1 to 5 µM

====

- systemName: human PAH with the R408W mutation (Homo sapiens, UniProt P00439, R408W)
- Construct: expressed in transfected cells
- testProtocol: Cell Based Phenylalanine Flux Assay
- experimentalContext: A375 cells expressing R408W PAH; 24 hrs with compound, then 20 µM sepiapterin and 800 µM 13C9,15N-Phenylalanine for 4 hours; 13C-Tyrosine by LC-MS; average where tested multiple times; read-out: AC50
This listing pairs compounds with measured AC50.

compound: CN(C)c1ccc2c(C(=O)N3CCc4[nH]cnc4C3c3cc4cccc(F)n4n3)cnn2c1 (centres unmarked)
AC50: 1 to 5 µM
//
compound: Cc1nnc(N2CCc3[nH]cnc3C2c2cc3cccc(C)n3n2)o1 (centres unmarked)
AC50: 1 to 5 µM
//
compound: COc1cccn2nc(C3c4nc[nH]c4CCN3C(=O)c3nnc(-c4cnn(C)c4)o3)cc12 (centres unmarked)
AC50: 1 to 5 µM
//
compound: Cn1cnc(-c2nnc(C(=O)N3CCc4[nH]cnc4C3c3cc4c(C(F)F)cccn4n3)o2)c1 (centres unmarked)
AC50: 1 to 5 µM
//
compound: O=C(C1CC1(F)F)N1CCc2[nH]cnc2C1c1cc2ccccn2n1 [4S enantiomer of 5-[(1S)-2,2-difluorocyclopropanecarbonyll-4]
AC50: 1 to 5 µM
//
compound: FC(F)c1cccc2cc([C@H]3c4nc[nH]c4CCN3c3nnc(C4CCC4)o3)nn12 (single isomer, unassigned)
AC50: > 5 µM

Asked: Can you look up the measured AC50 of CC(C)(C)c1nnc(C(=O)N2CCc3[nH]cnc3C2c2cc3cc(F)ccn3n2)o1 (centres unmarked) for me?
Given back: 1 to 5 µM

Asked: What value of AC50 has been recorded for this entry: CN(C)CCc1ccc2c(C(=O)N3CCc4[nH]cnc4C3c3cc4c(F)cccn4n3)cnn2c1 (centres unmarked)
Given back: 1 to 5 µM

====

Listing of recorded AC50 by entry.
- systemName: human PAH with the R408W mutation (Homo sapiens, UniProt P00439, R408W)
- Construct: expressed in transfected cells
- testProtocol: Cell Based Phenylalanine Flux Assay
- experimentalContext: A375 cells expressing human R408W PAH; 24 hrs compound incubation; 13C-Tyrosine by LC-MS; average where tested multiple times; read-out: AC50

compound: CC(C)(O)c1nc(Br)c(C(=O)N2CCc3[nH]cnc3[C@H]2c2cc3c(F)cccn3n2)o1 [Example 746]
result: < 0.5 µM

Now take the following compound into account.
Asked: API: value(readout=AC50, system=human PAH with the R408W mutation (Homo sapiens, UniProt P00439, R408W)) for record O=C(c1nnc(-c2ncccn2)o1)N1CCc2[nH]cnc2[C@H]1c1cc2cccc(C(F)F)n2n1 [Example 1499]
Given back: 0.5 to 1 µM

====

Quick reference for AC50 among some compounds
- systemName: human PAH with the R408W mutation (Homo sapiens, UniProt P00439, R408W)
- Construct: expressed in transfected cells
- Sequence (P00439 1-452 R408W): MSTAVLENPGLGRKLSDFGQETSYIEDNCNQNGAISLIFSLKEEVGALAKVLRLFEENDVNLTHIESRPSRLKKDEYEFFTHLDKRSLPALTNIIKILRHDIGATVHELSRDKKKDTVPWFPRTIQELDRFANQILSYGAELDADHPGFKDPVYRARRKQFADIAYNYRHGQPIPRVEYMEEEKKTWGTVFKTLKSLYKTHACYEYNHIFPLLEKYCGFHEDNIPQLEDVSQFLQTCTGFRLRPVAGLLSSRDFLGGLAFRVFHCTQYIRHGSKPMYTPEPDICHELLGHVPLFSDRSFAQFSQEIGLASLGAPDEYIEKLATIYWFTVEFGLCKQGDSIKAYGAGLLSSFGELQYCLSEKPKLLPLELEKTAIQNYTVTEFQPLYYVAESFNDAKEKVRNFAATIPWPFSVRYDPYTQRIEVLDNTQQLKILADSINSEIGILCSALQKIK
- testProtocol: Cell Based Phenylalanine Flux Assay;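 note: after compound treatment, cells received sepiapterin plus isotope-labelled Phenylalanine for 4 hours, then labelled Tyrosine in the medium was quantified, 10-point 2-fold dilution series run in duplicate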
- experimentalContext: A375 cells expressing human PAH R408W; 24 hrs compound incubation; 13C-Tyrosine by LC-MS; average where tested multiple times; read-out: AC50

Asked: # value lookup — system human PAH with the R408W mutation (Homo sapiens, UniProt P00439, R408W), readout AC50, item CC(C)c1cccn2nc([C@H]3c4nc[nH]c4CCN3C(=O)c3nnc(C(C)(C)F)o3)cc12
Given back: > 5 µM

Asked: Observed AC50 on human PAH with the R408W mutation (Homo sapiens, UniProt P00439, R408W) for Cc1cccc2cc([C@@H]3c4nc[nH]c4CCN3c3nnc(C(C)(F)F)o3)nn12 , please.
Given back: 1 to 5 µM

Asked: For human PAH with the R408W mutation (Homo sapiens, UniProt P00439, R408W), provide AC50 of Cc1cc(-c2nnc(C(=O)N3CCc4[nH]cnc4[C@@H]3c3cc4c(F)cccn4n3)o2)n[nH]1 please.
Given back: > 5 µM

Asked: Hello, I am looking for reported AC50 with human PAH with the R408W mutation (Homo sapiens, UniProt P00439, R408W) for CC(F)(F)c1nnc(N2CCc3[nH]cnc3[C@@H]2c2cc3c(C(F)F)cccn3n2)o1 . Could you help?
Given back: > 5 µM

Asked: Form field: AC50 recorded for COc1cccn2nc([C@H]3c4nc[nH]c4CCN3c3nnc(C(F)F)o3)cc12 with human PAH with the R408W mutation (Homo sapiens, UniProt P00439, R408W) (enter value)
Given back: > 5 µM

Asked: What reported AC50 corresponds to O=C(c1nnc(-c2ccn(C(F)(F)F)n2)o1)N1CCc2[nH]cnc2[C@H]1c1cc2c(C3CC3)cccn2n1 on human PAH with the R408W mutation (Homo sapiens, UniProt P00439, R408W)?
Given back: < 0.5 µM

Asked: Under human PAH with the R408W mutation (Homo sapiens, UniProt P00439, R408W): AC50 value of Cc1cccn2nc([C@@H]3c4nc[nH]c4CCN3C(=O)c3cnc(-c4ccn(C)n4)o3)cc12 ?
Given back: 1 to 5 µM
